Biological target: CSK (human) (UniProt P41240)
Sequence (P41240 whole entry, looked up): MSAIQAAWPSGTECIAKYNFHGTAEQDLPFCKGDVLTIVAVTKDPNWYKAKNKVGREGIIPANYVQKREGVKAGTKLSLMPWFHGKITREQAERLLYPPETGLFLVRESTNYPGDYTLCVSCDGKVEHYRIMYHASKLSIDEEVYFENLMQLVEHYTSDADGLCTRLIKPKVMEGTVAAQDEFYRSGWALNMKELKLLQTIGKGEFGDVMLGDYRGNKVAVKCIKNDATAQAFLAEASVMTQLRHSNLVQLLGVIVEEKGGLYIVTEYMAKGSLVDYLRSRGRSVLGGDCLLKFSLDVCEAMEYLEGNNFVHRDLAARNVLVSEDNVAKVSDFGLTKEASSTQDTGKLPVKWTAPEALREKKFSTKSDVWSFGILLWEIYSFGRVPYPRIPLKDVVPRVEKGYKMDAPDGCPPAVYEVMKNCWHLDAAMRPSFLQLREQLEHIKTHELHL
Assay: radiometric filter-binding kinase assay, Kinase HotSpot
Settings: compound 0.5 µM; ATP 10 µM
VALUE_TYPE: residual activity (%)
Write down the numeric answer in % and omit the unit.

Check out these entries, answers already filled in.
Recorded residual activity for O=C1NC(=O)c2c1c1c3ccccc3[nH]c1n1cncc21 , please?
83.3

Recorded residual activity for Cn1c2ccccc2c2c3c(c4c5ccccc5n(CCC#N)c4c21)CNC3=O , please?
81

Recorded residual activity for COc1ccc(S(=O)(=O)N(CCO)c2ccccc2CN(C)C/C=C/c2ccc(Cl)cc2)cc1 , please?
95.6

More entries:
Recorded residual activity for O=C(c1cc2cc(O)ccc2[nH]1)c1cc2cc(O)ccc2[nH]1 , please?
106

Recorded residual activity for c1ccc2c(-c3ccncc3)c[nH]c2c1 , please?
107

Recorded residual activity for COc1ccc2c(c1)c(C1=C(c3c[nH]c4ccccc34)C(=O)NC1=O)cn2CCCN(C)C , please?
84

----------
Target: MAP4K4 (human)
Assay: radiometric filter-binding kinase assay, Kinase HotSpot
Settings: compound 0.5 µM; ATP 10 µM
Category | rule: reported residual activity within range, see bucket 1: < 60%; bucket 2: ≥ 60% and < 90%; bucket 3: ≥ 90%

Which bin should I file COc1ccc2c(c1)c(C1=C(c3c[nH]c4ccccc34)C(=O)NC1=O)cn2CCCN(C)C under?
bucket 1

Which bin should I file CN(C)CCCn1cc(C2=C(c3c[nH]c4ccccc34)C(=O)NC2=O)c2ccccc21 under?
bucket 1

Which bin should I file COc1ccc(Cl)cc1NC(=O)Nc1cc(C)nc2ccccc12 under?
bucket 2

Which bin should I file O=C1NC(=O)c2c1c1c3ccccc3[nH]c1n1cncc21 under?
bucket 1

Which bin should I file O=C1C(Cl)=C(N2C(=O)CCC2=O)C(=O)c2ccccc21 under?
bucket 3

----------
# residual activity values compiled below
Target: DYRK4 (human) (UniProt Q9NR20)
Sequence (Q9NR20 whole entry, looked up): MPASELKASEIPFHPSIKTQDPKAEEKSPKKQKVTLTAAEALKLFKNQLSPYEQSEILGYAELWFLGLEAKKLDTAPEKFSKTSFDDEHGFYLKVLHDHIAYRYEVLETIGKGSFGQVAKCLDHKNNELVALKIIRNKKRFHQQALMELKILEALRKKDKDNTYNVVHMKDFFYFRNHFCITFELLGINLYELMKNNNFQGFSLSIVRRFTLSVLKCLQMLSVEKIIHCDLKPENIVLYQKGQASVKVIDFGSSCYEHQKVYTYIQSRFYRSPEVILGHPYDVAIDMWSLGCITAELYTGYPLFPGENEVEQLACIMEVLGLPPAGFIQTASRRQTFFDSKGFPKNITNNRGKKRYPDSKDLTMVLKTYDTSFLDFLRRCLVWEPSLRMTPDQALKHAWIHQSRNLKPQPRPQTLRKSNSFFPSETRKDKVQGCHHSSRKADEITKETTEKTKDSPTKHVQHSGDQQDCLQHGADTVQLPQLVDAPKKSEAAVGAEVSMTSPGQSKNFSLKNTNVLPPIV
Assay: radiometric filter-binding kinase assay, Kinase HotSpot
Conditions: compound 0.5 µM; ATP 10 µM
Write down the numeric answer in % and omit the unit.

Check out these entries, answers already filled in.
Recorded residual activity for NC(=O)c1cccc(-c2cc(Nc3ccc(OC(F)(F)F)cc3)ncn2)c1 , please?
96.3

Recorded residual activity for O=C1Nc2ccc(Br)cc2/C1=C\c1cc2c([nH]1)CCCC2 , please?
102

Recorded residual activity for COc1cc(Nc2c(C#N)cnc3cc(OCCCN4CCN(C)CC4)c(OC)cc23)c(Cl)cc1Cl , please?
97.9

Recorded residual activity for CC(C)(C)c1cc(C=C(C#N)C#N)cc(Br)c1O , please?
98.2

Recorded residual activity for COc1ccc2c(c1)c(C1=C(c3c[nH]c4ccccc34)C(=O)NC1=O)cn2CCCN(C)C , please?
97.3

More entries:
Recorded residual activity for CCCCc1c(-c2ccc(OC)cc2)[nH]c2nccnc12 , please?
97.7

Recorded residual activity for CN(C)c1ccc(/C=C2\C(=O)Nc3ccccc32)cc1 , please?
94.8

Recorded residual activity for O=C1c2ccccc2-c2nc3nnnn3nc21 , please?
88.5

Recorded residual activity for Cc1cncc2cccc(S(=O)(=O)N3CCCN(C(=O)CN)C[C@H]3C)c12 , please?
90.3

Recorded residual activity for c1ccc2c(-c3ccncc3)c[nH]c2c1 , please?
98.7

Recorded residual activity for N#Cc1c[nH]c2c[nH]/c(=N\Cc3cccnc3)cc2/c1=N\c1ccc(F)c(Cl)c1 , please?
84.4

Values compiled from the kinase profiling compilation of Christmann-Franck et al. (2016).
